Test system: SK-OV-3 ovarian
Experiment: NCI tumour cell line growth inhibition, 48 h
TGI reference

CN(C)c1ccc(/C=C(\C#N)c2nc3ccccc3n2C)cc1 ... 71.3 µM

TGI for Cc1cnc(/C=N\NC(N)=S)c2cccc(N)c12 is > 100 µM

TGI for Cc1c(C(=O)C/C(=N/NC(=O)C[n+]2ccccc2)C(=O)Nc2ccccc2)[n+](=O)c2ccccc2n1O is > 100 µM

TGI for C=CC(C=O)C1(O)CCOC(=O)/C1=C\N (stereo unspecified) is > 100 µM

TGI for O=C(CC(C(=O)c1ccco1)c1cccs1)c1cccs1 (stereo unspecified) is > 100 µM

TGI for NC(=S)Nc1cc(Cl)ccc1Cl is > 100 µM

TGI for COC(=O)Nc1nc2ccc(S(=O)(=O)n3nnc4ccccc43)cc2[nH]1 is 41.2 µM

TGI for Cc1cnc(-c2c[nH]c3ccccc23)nc1-c1c[nH]c2ccccc12 is 24 µM

TGI for NNC(=S)N/N=C(/C(=O)Nc1cc(Cl)ccc1Cl)C1C(=O)Nc2ccccc2S1=O (stereo unspecified) is > 100 µM

TGI for COCc1cc2c(cc1/C(=C/[N+](=O)[O-])CS(=O)(=O)c1ccccc1)OCO2 is > 100 µM

TGI for O=C1N(c2ccccc2)C(=O)C2(SC=NN2Cc2ccccc2)N1c1ccccc1 (stereo unspecified) is > 100 µM
